# ASSAYED SYSTEM: Sut1 (UniProt P53032)
# Sequence: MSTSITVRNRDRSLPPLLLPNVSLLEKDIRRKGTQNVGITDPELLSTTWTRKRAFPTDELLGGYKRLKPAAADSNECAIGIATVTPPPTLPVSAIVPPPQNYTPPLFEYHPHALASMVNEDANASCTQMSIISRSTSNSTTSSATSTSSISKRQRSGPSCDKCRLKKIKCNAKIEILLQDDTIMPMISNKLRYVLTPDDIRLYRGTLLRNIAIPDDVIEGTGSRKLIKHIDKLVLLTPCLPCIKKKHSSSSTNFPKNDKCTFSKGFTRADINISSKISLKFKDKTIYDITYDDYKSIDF
# ASSAY: PBM E-score (8-mer binding enrichment) (E-score (-0.5 to 0.5)); higher = stronger / more preferred TF binding
# EXPERIMENTAL CONTEXT: protein concentration: 200 nM; construct: GST-full length
Whole data set: some 33,000 sequences, median “E-score (-0.5 to 0.5)” near -0.017, cut for the highest 2% near 0.3. Shown is part of a subset that was picked to be rich in the highest values.
Label scheme for PBM E-score: lower than 0.05 is condition not met, 0.05 and above is condition met.

| RESIDUES | LABEL CLASS |
| --- | --- |
| AGATCATA | condition met |
| CCTTAAAA | condition met |
| ACTGCAAG | condition not met |
| AATGTATA | condition met |
| ATGACTGC | condition not met |
| AGTCGGAA | condition met |
| ATTGTATA | condition met |
| GCGACTTA | condition not met |
| GTCCTCAC | condition not met |
| CCAAGGAG | condition not met |
| AGTATAAA | condition met |
| ACTTAAAC | condition met |
| AATTGTCT | condition not met |
| CCATATAG | condition not met |
| AGGCCATC | condition not met |
| GAACGTGC | condition not met |
| AGGGCTGA | condition not met |
| ACTTAAAA | condition met |
| AGTCGGAT | condition met |
| CGTGACCC | condition not met |
| AGTCGGAC | condition met |
| GCAATACA | condition met |

###

Reported PBM E-score values for the following sequences.
# ASSAYED SYSTEM: Sut1 (UniProt P53032)
# Sequence: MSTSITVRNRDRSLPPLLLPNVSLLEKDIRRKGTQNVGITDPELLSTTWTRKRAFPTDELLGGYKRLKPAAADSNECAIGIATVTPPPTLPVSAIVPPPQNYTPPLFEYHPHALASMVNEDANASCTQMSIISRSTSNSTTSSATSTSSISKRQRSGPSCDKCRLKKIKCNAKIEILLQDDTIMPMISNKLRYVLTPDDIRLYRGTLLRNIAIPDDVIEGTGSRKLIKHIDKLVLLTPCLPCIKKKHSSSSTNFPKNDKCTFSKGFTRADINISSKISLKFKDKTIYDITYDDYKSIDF
# ASSAY: PBM E-score (8-mer binding enrichment) (E-score (-0.5 to 0.5)); higher = stronger / more preferred TF binding
# EXPERIMENTAL CONTEXT: protein concentration: 200 nM; construct: GST-full length
Whole data set: some 33,000 sequences, median “E-score (-0.5 to 0.5)” near -0.017, cut for the highest 2% near 0.3. Shown is part of a subset that was picked to be rich in the highest values.

| RESIDUES | ASSAYED SYSTEM | PBM E-score |
| --- | --- | --- |
| CATTCGGC | Sut1 (UniProt P53032) | -0.0155 |
| GCCTGGAC | Sut1 (UniProt P53032) | -0.336 |
| TCCAGAGA | Sut1 (UniProt P53032) | -0.187 |
| GCAGCACC | Sut1 (UniProt P53032) | 0.0294 |
| ACGGAGCG | Sut1 (UniProt P53032) | 0.2 |
| ATATAGAT | Sut1 (UniProt P53032) | 0.272 |
| CCGGGAGC | Sut1 (UniProt P53032) | -0.0765 |
| CATTCGGG | Sut1 (UniProt P53032) | -0.0375 |
| CGGAAATA | Sut1 (UniProt P53032) | 0.337 |
| GCCTAGGA | Sut1 (UniProt P53032) | -0.122 |
| ATCAAGAG | Sut1 (UniProt P53032) | 0.117 |
| TCAGGAGA | Sut1 (UniProt P53032) | 0.0262 |
| ATGGAGAA | Sut1 (UniProt P53032) | 0.108 |
| CGGAAAGC | Sut1 (UniProt P53032) | 0.275 |
| TATTCGCA | Sut1 (UniProt P53032) | 0.0506 |
| GCCGGAGA | Sut1 (UniProt P53032) | 0.316 |
| GCGATCCA | Sut1 (UniProt P53032) | -0.121 |
| CCCGGAAC | Sut1 (UniProt P53032) | 0.129 |
| AAATATTA | Sut1 (UniProt P53032) | 0.227 |
| GATTCGGA | Sut1 (UniProt P53032) | 0.385 |
| TCGGACAA | Sut1 (UniProt P53032) | 0.367 |
| ACGGAGCT | Sut1 (UniProt P53032) | 0.386 |
| ACCTGTTC | Sut1 (UniProt P53032) | -0.081 |
| ACTGTCAA | Sut1 (UniProt P53032) | -0.099 |
| CGACGAAA | Sut1 (UniProt P53032) | 0.0757 |
| CATTCGGA | Sut1 (UniProt P53032) | 0.392 |
| CGCTCCAC | Sut1 (UniProt P53032) | -0.012 |
| ACCCTATC | Sut1 (UniProt P53032) | 0.0201 |
| ACGGAGCC | Sut1 (UniProt P53032) | 0.219 |
| AAATATGA | Sut1 (UniProt P53032) | 0.114 |
| ACACTAAG | Sut1 (UniProt P53032) | -0.0951 |
| GATTCGCA | Sut1 (UniProt P53032) | 0.113 |
| ATATATAT | Sut1 (UniProt P53032) | 0.302 |
| GGAGTCTA | Sut1 (UniProt P53032) | 0.182 |
| GCGGACAA | Sut1 (UniProt P53032) | 0.23 |
| ACTTATAC | Sut1 (UniProt P53032) | 0.264 |
| CGGAAAGA | Sut1 (UniProt P53032) | 0.312 |
| ACGGAGAG | Sut1 (UniProt P53032) | 0.247 |
| AGGAGGAG | Sut1 (UniProt P53032) | -0.183 |
| GGGAAATA | Sut1 (UniProt P53032) | 0.0403 |
| ACCCAGAC | Sut1 (UniProt P53032) | -0.0554 |
| CGTTAAGC | Sut1 (UniProt P53032) | 0.125 |
| CCTGGTCA | Sut1 (UniProt P53032) | -0.307 |
| ACGGAGGA | Sut1 (UniProt P53032) | 0.0201 |
| ATTATTCA | Sut1 (UniProt P53032) | 0.289 |
| ACCCTCTA | Sut1 (UniProt P53032) | -0.245 |

###

# ASSAYED SYSTEM: Sut1 (UniProt P53032)
# Sequence: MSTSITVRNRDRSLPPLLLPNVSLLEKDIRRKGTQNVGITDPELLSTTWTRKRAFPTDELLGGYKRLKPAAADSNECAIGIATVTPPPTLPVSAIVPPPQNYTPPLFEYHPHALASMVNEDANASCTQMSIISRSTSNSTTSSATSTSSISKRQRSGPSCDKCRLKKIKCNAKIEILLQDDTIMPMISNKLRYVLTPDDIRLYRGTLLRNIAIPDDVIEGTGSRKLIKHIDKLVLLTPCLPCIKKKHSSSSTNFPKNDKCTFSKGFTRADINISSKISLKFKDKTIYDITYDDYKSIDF
# ASSAY: PBM E-score (8-mer binding enrichment) (E-score (-0.5 to 0.5)); higher = stronger / more preferred TF binding
# EXPERIMENTAL CONTEXT: protein concentration: 200 nM; construct: GST-full length
The full ranking holds about 33,000 sequences; the median of “E-score (-0.5 to 0.5)” is about -0.017, and the highest 2% start at about 0.3. This excerpt belongs to a sample that is enriched for the highest values.
Reported PBM E-score values for the following sequences.

| RESIDUES | PBM E-score |
| --- | --- |
| ATACGCTG | 0.025 |
| AGAGCGCG | -0.155 |
| CTCCGTTC | 0.32 |
| ACATCTAT | 0.17 |
| AATAGAGC | 0.0828 |
| AGGTCTAT | -0.0267 |
| GACTCGCC | -0.158 |
| AGTAAACG | -0.0776 |
| ATTTTACC | 0.352 |
| GCGCGTCA | -0.00075 |
| AAAAAACT | 0.198 |
